Ref: ChEMBL document CHEMBL5385847

system: OVCAR-3; experiment: Antiproliferative activity against human OVCAR-3 cells assessed as inhibition of cell viability by MTT assay; assay type: functional, cell-based
Measured Endpoint: IC50

> print(dat)
                              smiles.record  measured.endpoint     result
1  CN1CCN(c2ccc(Nc3nc(-n4nc(N)c5ccccc54)c4cc[nH]c4n3)cc2)CC1               IC50  > 3000 nM

* * *

tested on: A549; assay: Antiproliferative activity against human A549 cells assessed as inhibition of cell viability by MTT assay; assay type: functional, cell-based
pIC50: −log10 of the molar value.
Measured Endpoint: pIC50

> print(dat)
                              smiles.record  result.number
1  CN1CCN(c2ccc(Nc3nc(-n4nc(N)c5ccccc54)c4cc[nH]c4n3)cc2)CC1           5.69
